normalized RNA/DNA level without ligand (log10) reference
B1: library; a variant is named by its letters at N, in order (parent)
chain: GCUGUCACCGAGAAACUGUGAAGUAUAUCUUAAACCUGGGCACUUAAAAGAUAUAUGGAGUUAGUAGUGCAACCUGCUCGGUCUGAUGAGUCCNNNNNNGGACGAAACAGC

Variants of: B1
procedure.text: normalized RNA/DNA level without ligand (relative to sTRSVctl = 100) (log10 (% of sTRSVctl)); HEK293T; ligand: cyclic di-GMP (c-di-GMP-II aptamer); higher = less ribozyme self-cleavage, higher mRNA level
recorded.conditions: reporter: mCherry (pCS4076), ligand present: no
Please state the value as a number alone, without comment.

// below: answered variants
GCUAUU; 1.57
GAAUCC; 1.75
CUAUCG; 1.79

IN: Please give the measured normalized RNA/DNA level without ligand (log10) for this variant: UCGGCC
OUT: 1.85

IN: For the variant shown here, GAAUAC , give the reported normalized RNA/DNA level without ligand (log10).
OUT: 1.62

IN: # query: normalized RNA/DNA level without ligand (log10) of entry AACGGA
OUT: 1.32

Sourced from the supplement of paper PMC6757056
